- studySystem: T1, Lsm2-8fSNAP (unlabeled) (Saccharomyces cerevisiae, UniProt P38203;P57743;P40070;P40089;Q06406;P53905;P47093 …)
- T1 sequence 1: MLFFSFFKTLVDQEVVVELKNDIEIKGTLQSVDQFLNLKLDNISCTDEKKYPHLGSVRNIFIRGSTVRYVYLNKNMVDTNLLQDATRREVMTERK
- T1 sequence 2: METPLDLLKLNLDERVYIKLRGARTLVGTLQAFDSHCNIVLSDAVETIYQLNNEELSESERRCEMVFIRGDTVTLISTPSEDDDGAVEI
- T1 sequence 3: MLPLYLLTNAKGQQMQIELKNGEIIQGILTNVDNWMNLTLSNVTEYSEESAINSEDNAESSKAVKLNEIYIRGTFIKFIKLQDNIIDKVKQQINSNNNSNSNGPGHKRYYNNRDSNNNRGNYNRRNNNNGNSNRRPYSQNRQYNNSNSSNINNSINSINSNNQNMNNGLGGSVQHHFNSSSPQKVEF
- T1 sequence 4: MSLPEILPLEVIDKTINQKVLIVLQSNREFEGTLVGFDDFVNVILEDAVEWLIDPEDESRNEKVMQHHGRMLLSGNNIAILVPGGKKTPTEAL
- T1 sequence 5: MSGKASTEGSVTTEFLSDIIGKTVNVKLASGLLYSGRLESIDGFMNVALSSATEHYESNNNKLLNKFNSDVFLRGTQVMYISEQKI
- T1 sequence 6: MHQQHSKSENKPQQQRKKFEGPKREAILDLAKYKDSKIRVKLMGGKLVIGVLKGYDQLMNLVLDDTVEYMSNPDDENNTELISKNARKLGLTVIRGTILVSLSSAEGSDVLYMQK
- T1 sequence 7: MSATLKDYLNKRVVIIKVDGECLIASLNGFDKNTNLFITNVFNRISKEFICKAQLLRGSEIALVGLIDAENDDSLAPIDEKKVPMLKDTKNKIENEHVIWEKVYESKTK
- assayComment: fluorescence polarization; Hill 1.12; FP: 2x RNA stock 2 nM mixed 1:1 with protein, 100 mM NaCl, 20 mM Bis-Tris pH 7.0, 10 mM HCl, 1 mM TCEP, 5% glycerol, yeast tRNA, BSA. EMSA: 100 mM KCl, 20% sucrose, 20 mM Hepes pH 7, 1 mM EDTA, 1 mM TCEP, 0.01% Triton X-100 (RNA buffer), yeast tRNA, heparin, BSA, 30 min room temperature, 6% native PAGE at 4 C. CoSMoS buffer not in material.
- particulars: protein: recombinant; tags: fast SNAP tag at C terminus of Lsm8 via flexible linker; His-tag removed with TEV; copies: 1;1;1;1;1;1;1; label: fluorophore
measureName: pKd
# reply with the number alone; pKd is -log10 of concentration in mol/L

// pKd lookup, key: AGAGAUUUAUUUCGUUUUU (ssRNA, 3' cis-diol (2',3'-OH)) [U6 95-113-OH]
8.17
